- Species on record: Rattus norvegicus
- experiment: DrugMatrix - Regimen: Daily Repeat
- Type: toxicity, organism-based, Sprague-Dawley
- Parameters: regimen Daily Repeat, gender Male, age 6-8 weeks
- condition-notes: in vivo, po, 1500 mg/kg, 72 h, tissue Plasma, route oral GAVAGE, dose level High, time 3 day, vehicle .5 % CMC
List of CREATINE PHOSPHOKINASE values.

# molecule, CREATINE PHOSPHOKINASE
rows = [
    ("COc1cc(/C=C/C(=O)O)ccc1O [FERULATE]", "489 u/L"),
    ("CC[C@H]1OC(=O)[C@H](C)[C@@H](O[C@H]2C[C@@](C)(OC)[C@@H](O)[C@H](C)O2)[C@H](C)[C@@H](O[C@@H]2O[C@H](C)C[C@H](N(C)C)[C@H]2O)[C@](C)(O)C[C@@H](C)C(=O)[C@H](C)[C@@H](O)[C@]1(C)O", "328 u/L"),
    ("O=C(O)CCc1nc(-c2ccccc2)c(-c2ccccc2)o1", "206 u/L"),
    ("Cc1ccc(S(=O)(=O)NC(=O)NN2CCCCCC2)cc1 [TOLAZAMIDE]", "172 u/L"),
    ("COc1ccc(Cl)cc1C(=O)NCCc1ccc(S(=O)(=O)NC(=O)NC2CCCCC2)cc1 [GLYBURIDE]", "133.33 u/L"),
]

Taken from ChEMBL document CHEMBL3885881.
